For each entry below, report its apparent KD of MS2 coat protein value.
test system: MS2 coat protein; assay: apparent KD of MS2 coat protein; designed switch direction (-1 OFF switch, 1 ON switch): -1; higher = weaker reporter binding; settings: input ligand: none
Please don't drop the unit; write it after the number.

Prompt line: GET /values?readout=apparent KD of MS2 coat protein&item= CCUUAGUCACAGGAUAUGCUCAUCUAAUGAUGAGCAGAAGGGUGGACAUGAGGAUCACCCAUGUUUAUCAAGGG [Omei Ex6 E2] (Eterna round: R97, puzzle: Exclusion 6)
Response line: 348 nM

Prompt line: GET /values?readout=apparent KD of MS2 coat protein&item= CAAUUAAUUAAUUAAUAAUACAUGAGGAUCACCCAUGUAGAUCCUACAUACAAGCUUUGUAGCUCGUCUUAUAAUUA [Stov1/3-A3] (Eterna round: R97, puzzle: Sensor, turn-off variant 1)
Response line: 417 nM

Prompt line: GET /values?readout=apparent KD of MS2 coat protein&item= UUUUACUUAGGAUAUACAUUUUUUUAUUUAUUUAUAAUAUUACAUGAGGAUCACCCAUGUAGAAGGGAGAUUUU [My Design] (Eterna round: R96, puzzle: Exclusion 2)
Response line: 72.3 nM

Prompt line: GET /values?readout=apparent KD of MS2 coat protein&item= AAAACAAAAGGAUAUACAUGAGGAUCACCCAUGUGGCAUAAAAUCGCCGCUAAACCAUGUAGAAGGUUUGCGAA [EX3 A.6] (Eterna round: R97, puzzle: Exclusion 3)
Response line: 19.6 nM

Prompt line: GET /values?readout=apparent KD of MS2 coat protein&item= UGUGCGUCAGGAUAUUCUACUUAUUACAUGAGGAUCACCCAUGUGAAUGUACAAGGGUGUGAAGAAGGGACUUGUC [LRO-Excl5-05-mod A17d by Omei] (Eterna round: R97, puzzle: Exclusion 5)
Response line: 798 nM

Prompt line: GET /values?readout=apparent KD of MS2 coat protein&item= UCUCGCGGGCAAGGAUAUCCCACGCUGUUCUGGCCCGUGUUUGUUACAUGAGGAUCACCCAUGUGGGAGAAGGUGCACCAGGGC [Design 42] (Eterna round: R96, puzzle: Exclusion NG 2)
Response line: 168 nM

Prompt line: GET /values?readout=apparent KD of MS2 coat protein&item= GGAACGCGAGGAUAUACAUAGCCGGAAACGGCAAUAGCCUCACAUGAGGAUCACCCAUGUAGAAGGCGCGGAGA [AK-MS2ROC-r4-exclusion2-24] (Eterna round: R97, puzzle: Exclusion 2)
Response line: 17.2 nM

Prompt line: GET /values?readout=apparent KD of MS2 coat protein&item= AAUUAGUCAGGAUAUACAUGAGGAUCACCCAUGUAAACUUUUAGUUUAAUUUGAAUGUGUAGAAGGGACAUUAA [Ex3 #48] (Eterna round: R97, puzzle: Exclusion 3)
Response line: 29.7 nM

Prompt line: GET /values?readout=apparent KD of MS2 coat protein&item= CCGGCCGCCGUGAGGAUAUGCCCGCGCGCCCGCGGGCAGAAGGCACAUGAGGAUCACCCAUGUCCCGCGGUCCC [salish99_bmx4_r4_123] (Eterna round: R97, puzzle: Brourd's mod of Exclusion 4)
Response line: 15.6 nM

Prompt line: GET /values?readout=apparent KD of MS2 coat protein&item= CACCGUUAUAUAGGAUAUGUUACAUGAGGAUCACCCAUGUAAUAAAUGAGAAUUUCGAAUGUAAUACAGAAGGAUAGAAUCGGC [Ostracism 72 - Jieux - Exclusion NG 2] (Eterna round: R96, puzzle: Exclusion NG 2)
Response line: 22.9 nM

###

For each entry below, report its apparent KD of MS2 coat protein value.
test system: MS2 coat protein; assay: apparent KD of MS2 coat protein; higher = weaker reporter binding; details: Eterna round: R107; input ligand: arginine 13.2 mM
A number alone suffices; assume nM.

Prompt line: GET /values?readout=apparent KD of MS2 coat protein&item= UAUCCACAUGAGGAUCACCCAUGUAAGGAAGGAGCGGUGAAUGCACCAGGUAGGUCGCCUUGCUGAGGACAGCCGGUGGAUUCGU [Exclusion - Arginine A (Freestyle 24)]
Response line: 14.7

Prompt line: GET /values?readout=apparent KD of MS2 coat protein&item= ACAUGAGGAUCACCCAUGUAACAAACAGAAGGAGCGUGAAAGAACACAGGUAGGUCGCUGAACUUAAUGAAUACUCAUUAGAUCC [JR_Nu_SSArginiA_Sub027]
Response line: 13.4

Prompt line: GET /values?readout=apparent KD of MS2 coat protein&item= UAGCGAUAAUCUGAUACCAGACGUGUACUCUCCUCAGACAUGAGCAUCAGCCAUGUAUGCGUCCCUUGGCAGCAGAGAUAGGAGA [Theo B Ex t5b]
Response line: 16.9

Prompt line: GET /values?readout=apparent KD of MS2 coat protein&item= UCGCCCAGAAAGGAUUCCUGGGAUAUGGAAGGAGCGCUGAUGCCAGCAGGUAGGUCGCCAACGGACAUGAGGAUCACCCAUGUAC [Same State - Arginine A (Freestyle 7)]
Response line: 15.4

###

For each entry below, report its apparent KD of MS2 coat protein value.
test system: MS2 coat protein; experiment: apparent KD of MS2 coat protein; designed switch direction (-1 OFF switch, 1 ON switch): -1; higher = weaker reporter binding; conditions: Eterna round: R95; input ligand: FMN 200 uM
A number alone suffices; assume nM.

Prompt line: GET /values?readout=apparent KD of MS2 coat protein&item= GGUUGGCGAGGAUAUACAUGAGGAUCACCCAUGUGAGAGAAAAAAGUGAGCAAGAAAAGUAGAAGGCGCUGACG [salish99_ex3_r3_030] (puzzle: Exclusion 3)
Response line: 627

Prompt line: GET /values?readout=apparent KD of MS2 coat protein&item= GGUUGGCGAGGAUAUACAUGAGGAUCACCCAUGUGAGAGAAAGAAGUGAGGAAGAAUAGUAGAAGGCGCUGACG [salish99_ex3_r3_056] (puzzle: Exclusion 3)
Response line: 746

Prompt line: GET /values?readout=apparent KD of MS2 coat protein&item= UUGUAUAUCUAUGGGAGUAACAUGAGGAUCACCCAUGUAUGUCUUGUUUUUUGUUCGUCAUAGGCCAAUUGAAUGGU [JR_SV3TOV1_Sub026] (puzzle: Sensor v3, turn-off variant 1)
Response line: 25.9

Prompt line: GET /values?readout=apparent KD of MS2 coat protein&item= GAAAAGGUAGGAUAUACGAAAAAAAAGGGUAGAAAAAAAACACAUGAGGAUCACCCAUGUAGAAGGACCAAAAA [salish99_ex2_r3_050] (puzzle: Exclusion 2)
Response line: 98.9

Prompt line: GET /values?readout=apparent KD of MS2 coat protein&item= CUUAGCCUAAAAUCACGCAAGCUUUUCGCUUGUCUUAAGACAUGAGGAUCACCCAUGUCCGGGCUGAACUUAUGGAA [Esenma] (puzzle: Sensor v3, turn-off variant 2)
Response line: 18.3

Prompt line: GET /values?readout=apparent KD of MS2 coat protein&item= AGUAGUAGUAUCCGAUCCUACAUGAGGAUCACCCAUGUUGCUAGACGUGCACGCGAUGCUCGUCAGACUACCAGAUG [salish99_TOv1_r3_050] (puzzle: Sensor v3, turn-off variant 1)
Response line: 326

Prompt line: GET /values?readout=apparent KD of MS2 coat protein&item= AAGAAACAUGAGGAUCACCCAUGUGAGGAUAUGAUCAAGAAAAGAAAAGAAAGAAGACUCAGAAGGCACAAAGG [salish99-ex1_r3_071] (puzzle: Exclusion 1)
Response line: 162

Prompt line: GET /values?readout=apparent KD of MS2 coat protein&item= AAUAAGCGAGGAUAUACAUGAGGAUCACCCAUGUGGACCGGGUGUUCAGCAAAUAAAAGUAGAAGGCGCAAAAG [Tibiater] (puzzle: Exclusion 3)
Response line: 29.1

Prompt line: GET /values?readout=apparent KD of MS2 coat protein&item= GGUUGGCGAGGAUAUACAUGAGGAUCACCCAUGUGAGCGAAAAAAGUGAGGAAGAAAAGUAGAAGGCGCUGACG [salish99_ex3_r3_020] (puzzle: Exclusion 3)
Response line: 236

Prompt line: GET /values?readout=apparent KD of MS2 coat protein&item= GGGAUGUGAGGAUAUCGAGGUGCAAAGCACCUAAAAGAAAACGAGAAGGCACAUGAGGAUCACCCAUGUAAUAC [Xeinle] (puzzle: Exclusion 4)
Response line: 105

###

system: MS2 coat protein; assay: apparent KD of MS2 coat protein; designed switch direction (-1 OFF switch, 1 ON switch): -1; higher = weaker reporter binding; details: Eterna round: R95; input ligand: none
I'd appreciate it if you could label each record using apparent KD of MS2 coat protein and these ranges: bin 1 = under 30 nM, bin 2 = from 30 nM up to 60 nM, bin 3 = 60 nM and over

Prompt line: Class? Entry: AGAGUACAUGAGGAUCACCCAUGUUAGGAUAUGCAUAAUAAGAAGAAGAGAAGAGAGAGCAGAAGGAACAAGAG [Ex 1 M1] (puzzle: Exclusion 1)
Response line: bin 2

Prompt line: Class? Entry: AGAUGUAGAAACCGAUCCUACAUGAGGAUCACCCAUGUAGCAAGACGUGCACGCGAAGCUCGUCAGACUACCAGAAG [salish99_TOv1_r3_082] (puzzle: Sensor v3, turn-off variant 1)
Response line: bin 3

Prompt line: Class? Entry: GGUUGGCGAGGAUAUACAUGAGGAUCACCCAUGUGAGCGAAAAAAGUGAGGAAGAAAAGUAGAAGGCGCUGACG [salish99_ex3_r3_020] (puzzle: Exclusion 3)
Response line: bin 3

Prompt line: Class? Entry: AAGAUGAGACAGGAUAUCCACAAAAUCUUGUCAGGAGAAGGGUCUACAUGAGGAUCACCCAUGUGAUUCUUGAA [Inriinvele] (puzzle: Exclusion 6)
Response line: bin 1

Prompt line: Class? Entry: UAUGUGUGAGGAUAUGGUAAAGAUAAGAUGAUGAAAGAACUCCAGAAGGCACAUGAGGAUCACCCAUGUAGAUG [JL-ex4-2.10 Jieux mod] (puzzle: Exclusion 4)
Response line: bin 2

Prompt line: Class? Entry: UAUCGGCGGACCGAGGCUUUUUGCUCGUCUUAUGCUACGACAUGAGGAUCACCCAUGUGGUGGUGGUCCGUUGUAGU [JL ViennaUCT Bitein mod 8] (puzzle: Sensor v3, turn-off variant 2)
Response line: bin 3

Prompt line: Class? Entry: CUAGUCCGAGGAUAUAUUAUGUGAUACAUGAGGAUCACCCAUGUUAUAUGAUGGAUGUUAAUAGAAGGCGGACUAG [Mat - Exclusion 5 - JL mod - D72] (puzzle: Exclusion 5)
Response line: bin 3

Prompt line: Class? Entry: ACAAGCUUUUUGUUCGUCUUAUAAUAUUAAAUAAAGAUAACAUGAGGAUCACCCAUGUAACAAAGACGGACUCAUGU [Sesor Array 17 - Jieux - Sensor v3, turn-off variant 2] (puzzle: Sensor v3, turn-off variant 2)
Response line: bin 1

Prompt line: Class? Entry: GGUUGGCGAGGAUAUACAUGAGGAUCACCCAUGUGAGAGAAAAAAGUGAGCAAGAAAAGUAGAAGGCGCUGACG [salish99_ex3_r3_030] (puzzle: Exclusion 3)
Response line: bin 1

Prompt line: Class? Entry: GGUCAAGAACAGCUCCGCGCUGCCCUUGACCGCUCAUUUACAUGAGGAUCACCCAUGUUUUUUGCUUGUCUUGUUUC [Bebiesgebe] (puzzle: Sensor v3, turn-off variant 2)
Response line: bin 1

Prompt line: Class? Entry: AUGAGGUUAGGAUAUACAUGAGGAUCACCCAUGUUGAAAGGUUAGAUAGGAGAAGAUAGUAGAAGGAACAAAGA [JR_Exclu3_Sub053] (puzzle: Exclusion 3)
Response line: bin 2

These entries and their values trace back to the supplement of paper PMC9170038.
